Tested on: NCI/ADR-RES ovarian
Assay Remarks: NCI tumour cell line growth inhibition, 48 h
Reported GI50 values are given for each entry in this list.

Compound	GI50
CC1(C)CCC(S(=O)(=O)c2ccc3c(c2)/C(=N\O)c2cc(S(=O)(=O)N4CCN(c5ccc(F)cc5O)CC4)ccc2-3)CC1	0.443 µM
CC1=C(SCCC(=O)OCC(=O)NCCC[Te]c2ccccc2)C(=O)c2ccccc2C1=O	2.22 µM
CC(C)=CC(=O)OCC(=O)O[C@@H]1C[C@]2(C(C)C)O[C@@]1(C)[C@@H]1CC[C@@H](C)[C@H]1[C@@H]2OC(=O)/C=C/c1ccccc1	2.25 µM
Nc1nc(-c2cccc3ccccc23)cc2ccccc12	0.463 µM

Quote NCI/ADR-RES ovarian GI50 for entry Cc1cc(C)c(CNC(=O)c2cc(-c3ccc(CN4CCOCC4)cc3)cc3c2cnn3C2CCCC2)c(=O)[nH]1 . 15.1 µM

Quote NCI/ADR-RES ovarian GI50 for entry O=C(OC(CNc1c(C(=O)c2ccccc2)c(=O)n(Cc2ccccc2)c(=O)n1Cc1ccccc1)CN1CCOCC1)c1ccccc1 (stereo not drawn) . 47.7 µM

Quote NCI/ADR-RES ovarian GI50 for entry Ic1ccc2[nH]cc(SSc3c[nH]c4ccc(I)cc34)c2c1 . 2.57 µM

Quote NCI/ADR-RES ovarian GI50 for entry CCOC(=O)c1cc(NC(=O)c2cc(NC(=O)c3cc(NC(=O)c4c(-c5ccccc5)noc4C)cn3C)cn2C)cn1C . > 100 µM

---

Test system: A549 NSCLC
Assay Remarks: NCI tumour cell line growth inhibition, 48 h
Reported TGI values are given for each entry in this list.

Molecule	Result
COc1ccc(C2=C(c3cn(C)c4ccccc34)C(=O)NC2=O)cc1	> 25 µM
NC(=O)NN=C1C[C@H]2CCCC[C@H]2C1	> 100 µM
COC(=O)[C@@]12OC[C@]34[C@H]([C@@H](O)[C@@H]1O)[C@@]1(C)CC(=O)C(OC(C)=O)=C(C)[C@@H]1C[C@H]3OC(=O)[C@H](OC(=O)C=C(C)C)[C@@H]24	4.92 µM

Alright, here's another compound for you.
Hello, please tell me recorded TGI for this one: Cc1ccc(C(=O)Nc2ccc(S(=O)(=O)O)c3cc(S(=O)(=O)O)cc(S(=O)(=O)O)c23)cc1NC(=O)Nc1cc(C(=O)Nc2ccc(S(=O)(=O)O)c3cc(S(=O)(=O)O)cc(S(=O)(=O)O)c23)ccc1C > 87.5 µM

---

Test system: DU-145 prostate
Assay Remarks: NCI tumour cell line growth inhibition, 48 h; in the data active means GI50 below about 0.43 µM; inactive means the rest
Pick one: T for active, F for inactive

Solved cases below.
Compound	Assigned Label
O=C1OCC2=C1C(c1cccc(F)c1)c1cc3c(cc1N2CCO)CCC3 (stereo not drawn)	T
COc1cc2c(cc1O)N=C[C@@H]1C[C@@H](F)CN1C2=O	F

Moving on to another compound below.
What is the recorded call for this compound in the test? O=C1NC(=NCCc2cccs2)S/C1=C\c1ccc2ncccc2c1 F

---

System: HS 578T breast
Assay Remarks: NCI tumour cell line growth inhibition, 48 h
Quantity Name: TGI

Molecule	Quantity Name	Result
CC(=O)Nc1ccc(-c2csc(Nc3ccc(-c4csc(-c5ccccc5)n4)cc3)n2)cc1	TGI	> 50 µM
CN1C(NN)=NS(=O)(=O)c2ccccc21	TGI	> 100 µM

Hello, please tell me recorded TGI for this one: CN(C)CCCNC(=O)CCNC(=O)c1cc(NC(=O)c2cc(NC(=O)c3cc(NC(=O)CCCNC(=O)c4cc(NC(=O)c5cc(NC(=O)c6nccn6C)cn5C)cn4C)cn3C)cn2C)cn1C > 100 µM

Hello, please tell me recorded TGI for this one: CC(C)=CCC[C@@H](C)C1=C(O)C(c2c(I)c(=O)n(C)c(=O)n2C)=C(C)C(=O)C1=O > 100 µM

Hello, please tell me recorded TGI for this one: CNC(=O)CCC(NC(=O)OC(C)(C)C)C(=O)NC(Cc1ccc(NC(=O)CCCCC(C)=O)cc1)C(=O)NCC(=O)NC (stereo not given) > 100 µM

FYI, the data here is from PubChem BioAssay (NCI).
